- TESTED SYSTEM: T1, BsaWI R259A (UniProt Q6UQ65 1-272, R259A)
- T1 sequence: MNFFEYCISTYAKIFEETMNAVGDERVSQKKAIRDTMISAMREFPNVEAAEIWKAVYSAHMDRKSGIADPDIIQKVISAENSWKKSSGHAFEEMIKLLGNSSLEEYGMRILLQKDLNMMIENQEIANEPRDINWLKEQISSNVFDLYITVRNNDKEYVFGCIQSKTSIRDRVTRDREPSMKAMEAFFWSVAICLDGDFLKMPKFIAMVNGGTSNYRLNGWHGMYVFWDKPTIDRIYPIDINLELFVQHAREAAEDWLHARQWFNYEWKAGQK
- MEASUREMENT PROTOCOL: EMSA; 5 mM Ca2+; EMSA: 40 mM Tris-acetate pH 8.3, 0.1 mg/ml BSA, 10% glycerol, 5 mM CaCl2 or 0.1 mM EDTA, 1 nM DNA, room temperature, 15 min
- RUN CONDITIONS: protein: recombinant; chain copies: 2; label: 33P; blunt
PROPERTY MEASURED: pKd
The quantity pKd is defined as the negative base-10 logarithm of the molar concentration.

Entry under test: SP (dsDNA) DNA 1: GCCTTTCGGTTTACCGGTGTCATTCCGCTG DNA 2: CAGCGGAATGACACCGGTAAACCGAAAGGC . Its pKd was 8.70
